System: serum uric acid
Assay: Determination of oral administration: lowering of serum uric acid in mice
Format: in vivo, ICR male mice
Details: Mus musculus; ICR male mice, oral, 1 mg/kg, 2 hours after administration, serum; read-out: Activity of lowering uric acid
PARAMETER MEASURED: inhibition in vivo at 1 mg/kg (%)
Numbers only, in %.

# get_value(readout= inhibition in vivo at 1 mg/kg, system= serum uric acid) for `Cc1nc(-c2ccc(N3CCN(C)CC3)c([N+](=O)[O-])c2)sc1C(=O)O`
75

For every item below, please supply its inhibition in vivo at 1 mg/kg.
1. Cc1nc(-c2ccc(OCCC(C)C)c([N+](=O)[O-])c2)sc1C(=O)O
2. Cc1nc(-c2ccc(OCCN3CCCCC3)c(Cl)c2)sc1C(=O)O
3. CCC(CC)COc1ccc(-c2nc(C)c(C(=O)O)s2)cc1Cl

1: 85; 2: 15; 3: 29

For every item below, please supply its inhibition in vivo at 1 mg/kg.
1. Cc1nc(-c2ccc(Sc3ccc(Cl)cc3)c(Cl)c2)sc1C(=O)O
2. Cc1nc(-c2ccc(OCC(C)(C)C)c(Cl)c2)sc1C(=O)O
3. Cc1nc(-c2ccc(OCC(C)(C)C)c(I)c2)sc1C(=O)O
4. Cc1nc(-c2cc(Cl)c(OC(C)C)c(Cl)c2)sc1C(=O)O

1. 32
2. 12
3. 77
4. 13

For every item below, please supply its inhibition in vivo at 1 mg/kg.
1. Cc1nc(-c2ccc(OC(C)C)c(Cl)c2)sc1C(=O)O
2. Cc1nc(-c2ccc(N3CCCCC3)c(Br)c2)sc1C(=O)O
3. Cc1nc(-c2ccc(OCC(C)C)c(C(F)(F)F)c2)sc1C(=O)O

[20, 65, 86]
